Biological target: hAM1R (human, UniProt Q16602)
Test: cell-based or functional assay
Numbered stars: 1 amine (or outer) side, 2 acyl side, 3 side chain; on linkers, the order of the positions; unused ones are H or OH. Bridge positions count the residues as written; N and C are the ends. Square brackets hold non-standard residues; d marks the D form. Ends that are not written are not given here. * marks the point of attachment. C20 diacid = O=C(O)CCCCCCCCCCCCCCCCCCC(=O)*; γGlu = O=C(O)[C@H](CCC(=O)[*:2])N[*:1]; Hyp = O=C(O)[C@@H]1C[C@@H](O)CN1
Please use the following hAM1R EC50 (cAMP) ranges when assigning a class: 0 (below 10 nM), 1 (10 nM to below 2000 nM), 2 (2000 nM or more)

binder: GCRFGTCTVQRLAHQIYQFTDKDKDNVAPRTNIGPQGY [SEQ ID NO: 379]
assignedClass: 0

binder: KCNFATCTVQRLAHQIYQFTDKDKDNVAPRTEVGSNG[Hyp]-NH2 (disulfide 2-7 (inferred); ends not checked) [SEQ ID NO: 17]
assignedClass: 1

binder: KCNTATCTVQRLAHQIYQFTKDKDNVAPPTNVGSNG[Hyp]-NH2 (disulfide 2-7 (inferred); not fully specified; ends not checked) [SEQ ID NO: 29]
assignedClass: 2

(Q) Lab note: which band did KCNTATCTVQWLAHQIYQFTDKDKDNVPPTNVGSNG[Hyp]-NH2 (disulfide 2-7 (inferred); ends not checked) [SEQ ID NO: 318] land in?
(A) 2

(Q) Lab note: which band did GCRTGTCTVQRLAHQIYQFTDKDKDNVAPRTKISPQG[Hyp]-NH2 (disulfide 2-7 (inferred); ends not checked) [SEQ ID NO: 189] land in?
(A) 2

(Q) Lab note: which band did GCRTGTCTVQRLAHQIYQFTDKFKDNVAPRSKISPQM[Hyp]-NH2 (disulfide 2-7 (inferred); ends not checked) [SEQ ID NO: 236] land in?
(A) 2

(Q) Lab note: which band did {C20 diacid-γGlu}-KCNTATCTVQRLAHQIQQFTDKDKDNVAPPTNVGSNG[Hyp]-NH2 (disulfide 2-7 (inferred); ends not checked) [SEQ ID NO: 35] land in?
(A) 2

(Q) Lab note: which band did KCNTATCTVQRLAAQIYQFTDKDKDNVAPPTNVGSNG[Hyp]-NH2 (disulfide 2-7 (inferred); ends not checked) [SEQ ID NO: 7] land in?
(A) 2
